# assay: Determination of the log P values by HPLC (formic acid method)
# Assay type: physicochemical
# test_conditions: reversed-phase column (C 18), acidic range (pH 3.4), 55° C.
endpoint: log P

I: CC(C)(C)c1ccccc1C(=O)Nc1ccn(-c2ccccc2Cl)n1 [Compound I-1-373]
II: Cn1ncc(F)c1C(=O)Nc1ccn(-c2ncc(F)cc2F)n1 [Compound I-1-538]
# returns the entry with the larger log P; inputs I and II Answer by quoting the chosen item's label. I
(I: 3.85, II: 2.03)

a: O=C(Nc1ccn(-c2c(F)cccc2F)n1)c1sccc1I [Compound I-1-104]
b: CCc1ncccc1C(=O)Nc1ccn(-c2c(F)cccc2F)n1 [Compound I-1-275]
Dear colleague, could you let me know whether a or b has the lower recorded log P? Thanks. Answer by quoting the chosen item's label. b
(b: 1.47, a: 2.96)

I: Cc1cccnc1C(=O)Nc1ccn(-c2ccccc2Cl)n1 [Compound I-1-38]
II: CC(=O)Nc1ccccc1C(=O)Nc1ccn(-c2c(F)cccc2F)n1 [Compound I-1-269]
# returns the entry with the larger log P; inputs I and II Answer by quoting the chosen item's label. I
